recorded.metric: melting point (°C)
Numbers only here, please. The scale is °C.

compound	melting point / °C
CCCC(=O)O [Butyric acid]	-5
COc1ccc2c(OC)cccc2c1	59
Clc1ccc(-c2ccc(Cl)c(Cl)c2Cl)cc1Cl	117
OCc1cccc(O)c1 [3-hydroxybenzyl_alcohol]	72
Nc1ccccc1N	102

Field melting point (entry CCCCCCSc1nc[nH]n1 ) reads 67

Field melting point (entry CC1(C)C=Nc2ccccc21 ) reads 228

Field melting point (entry CCCCCCCCCCc1ccc(-c2ccccc2)cc1 ) reads 53

Field melting point (entry C[C@H](NC(=O)OCc1ccccc1)C(=O)O ) reads 85

Field melting point (entry CN(C)C(=N)NC(=N)N ) reads 224

Field melting point (entry Cc1ccccc1OCC(=O)O ) reads 154

Field melting point (entry CC(=O)c1ccccc1-c1ccccc1 ) reads 56

Field melting point (entry CCO[Si](OCC)(OCC)OCC ) reads -85

Field melting point (entry O=C(Cl)c1ccccc1 [Benzoyl chloride] ) reads -1

Field melting point (entry Nc1c(Cl)cc([N+](=O)[O-])cc1[N+](=O)[O-] ) reads 157

Field melting point (entry OC/C(Br)=C(\Br)CO [trans-2,3-dibromo-2-butene-1,4-diol] ) reads 113

Field melting point (entry c1cc(N2CCNCC2)ccn1 ) reads 139

Field melting point (entry C=Cc1cccc([N+](=O)[O-])c1 [1-Nitro-3-vinylbenzene] ) reads -5

Field melting point (entry ICCI ) reads 82

Field melting point (entry C=CC(=O)OC [Methyl acrylate] ) reads -75

Field melting point (entry CCC(Br)CBr (configuration not stated) ) reads -65

Field melting point (entry CCS(=O)(=O)c1ccc(B(O)O)cc1 [4-(ethylsulfonyl)benzeneboronic acid] ) reads 137

Field melting point (entry O=C1CCN(C(=O)c2ccccc2)CC1 ) reads 55

Field melting point (entry COc1ccccc1-c1ccccc1 ) reads 31

Field melting point (entry CCOCOCC ) reads -66

Field melting point (entry O=Cc1ccc(CO)cc1 [p-hydroxymethyl_benzaldehyde] ) reads 47

Field melting point (entry O=C5\C=C4/C(C3CCC2(C(CCC2OC(=O)Cc1ccccc1)C3CC4)C)(C)CC5 (configuration not stated) [Testosterone phenylacetate] ) reads 129

Field melting point (entry C1CCc2nnnn2CC1 ) reads 60

Field melting point (entry Nc1nc(N)c2nc(-c3ccccc3)c(N)nc2n1 ) reads 316

Field melting point (entry CCCc1ccc(O)cc1 ) reads 22

Field melting point (entry O=C(CBr)c1c(F)c(F)c(F)c(F)c1F ) reads 31

Field melting point (entry Cc1cc(C)cc(N)c1 ) reads 10

Field melting point (entry N#C/C(=C\c1ccc(Cl)cc1)c1nc(-c2cccc3ccccc23)cs1 ) reads 131

Field melting point (entry COc1ccc(-c2nnn[nH]2)cc1 ) reads 237

Data provenance is the Bradley open melting point set (2014).
